# protocolSummary: in vivo
# particulars: CD1 nude, mouse, 0.5 nmol/mouse, total radioactivity, Stomach uptake
observedProperty: tissue uptake at 1 h (%ID/g)

{"columns": ["compound", "observedProperty", "unitName", "obsValue"],
 "data": [
  ["Cc1ccc(CCCC(=O)NCCOCCOCCOCCOCCC(=O)NCCCC[C@H](NC(=O)CN2CCN(CC(=O)O)CCN(CC(=O)O)CCN(CC(=O)O)CC2)C(=O)N[C@@H](CC(=O)O)C(=O)N[C@@H](CC2CCCCC2)C(=O)N[C@@H](Cc2ccccc2)C(=O)N[C@H](CO)C(=O)N[C@H](CCCNC(=N)N)C(=O)N[C@@H](Cc2ccc(O)cc2)C(=O)N[C@@H](CC(C)C)C(=O)N[C@@H](Cc2c[nH]c3ccccc23)C(=O)N[C@@H](CO)C(N)=O)cc1 [[^177Lu]Lu-uPAR-11, metal not drawn]", "tissue uptake at 1 h", "%ID/g", 1.8]
]}

====

# protocolSummary: in vivo
# particulars: CD1 nude, mouse, 0.5 nmol/mouse, total radioactivity, Pancreas uptake

{"columns": ["compound", "tissue uptake at 48 h / %ID/g"],
 "data": [
  ["Cc1ccc(CCCC(=O)NCCOCCOCCOCCOCCC(=O)NCCCC[C@H](NC(=O)CN2CCN(CC(=O)O)CCN(CC(=O)O)CCN(CC(=O)O)CC2)C(=O)N[C@@H](CC(=O)O)C(=O)N[C@@H](CC2CCCCC2)C(=O)N[C@@H](Cc2ccccc2)C(=O)N[C@H](CO)C(=O)N[C@H](CCCNC(=N)N)C(=O)N[C@@H](Cc2ccc(O)cc2)C(=O)N[C@@H](CC(C)C)C(=O)N[C@@H](Cc2c[nH]c3ccccc23)C(=O)N[C@@H](CO)C(N)=O)cc1 [[^177Lu]Lu-uPAR-11, metal not drawn]", 0.07]
]}

====

Listed here: items and their measured Human blood plasma stability, intact radiopeptide.
# Assay type: in vitro ADME
# particulars: 24 h, 1 µM
observedProperty: Human blood plasma stability, intact radiopeptide (%)

{"columns": ["compound", "unitName", "obsValue"],
 "data": [
  ["Cc1ccc(CCCC(=O)NCCOCCOCCOCCC(=O)NCCCC[C@H](NC(=O)CN2CCN(CC(=O)O)CCN(CC(=O)O)CCN(CC(=O)O)CC2)C(=O)N[C@@H](CC(=O)O)C(=O)N[C@@H](CC2CCCCC2)C(=O)N[C@@H](Cc2ccccc2)C(=O)N[C@H](CO)C(=O)N[C@H](CCCNC(=N)N)C(=O)N[C@@H](Cc2ccc(O)cc2)C(=O)N[C@@H](CC(C)C)C(=O)N[C@@H](Cc2c[nH]c3ccccc23)C(=O)N[C@@H](CO)C(N)=O)cc1 [[^177Lu]Lu-uPAR-15, metal not drawn]", "%", 96],
  ["Cc1ccc(CCCC(=O)NCCOCCOCCOCCOCCC(=O)NC[C@H](NC(=O)CN2CCN(CC(=O)O)CCN(CC(=O)O)CCN(CC(=O)O)CC2)C(=O)N[C@@H](CC(=O)O)C(=O)N[C@@H](CC2CCCCC2)C(=O)N[C@@H](Cc2ccccc2)C(=O)N[C@H](CO)C(=O)N[C@H](CCCNC(=N)N)C(=O)N[C@@H](Cc2ccc(O)cc2)C(=O)N[C@@H](CC(C)C)C(=O)N[C@@H](Cc2c[nH]c3ccccc23)C(=O)N[C@@H](CO)C(N)=O)cc1 [[^177Lu]Lu-uPAR-14, metal not drawn]", "%", 97]
]}

====

# protocolSummary: in vivo
# particulars: CD1 nude, mouse, 0.5 nmol/mouse, total radioactivity, Blood uptake

{"columns": ["molecule", "tissue uptake at 4 h"],
 "data": [
  ["Cc1ccc(CCCC(=O)NCCOCCOCCOCCOCCC(=O)NCCCC[C@H](NC(=O)CN2CCN(CC(=O)O)CCN(CC(=O)O)CCN(CC(=O)O)CC2)C(=O)N[C@@H](CC(=O)O)C(=O)N[C@@H](CC2CCCCC2)C(=O)N[C@@H](Cc2ccccc2)C(=O)N[C@H](CO)C(=O)N[C@H](CCCNC(=N)N)C(=O)N[C@@H](Cc2ccc(O)cc2)C(=O)N[C@@H](CC(C)C)C(=O)N[C@@H](Cc2c[nH]c3ccccc23)C(=O)N[C@@H](CO)C(N)=O)cc1 [[^177Lu]Lu-uPAR-11, metal not drawn]", "5 %ID/g"],
  ["Cc1ccc(CCCC(=O)NCCCCCCCC(=O)NCCCC[C@H](NC(=O)CN2CCN(CC(=O)O)CCN(CC(=O)O)CCN(CC(=O)O)CC2)C(=O)N[C@@H](CC(=O)O)C(=O)N[C@@H](CC2CCCCC2)C(=O)N[C@@H](Cc2ccccc2)C(=O)N[C@H](CO)C(=O)N[C@H](CCCNC(=N)N)C(=O)N[C@@H](Cc2ccc(O)cc2)C(=O)N[C@@H](CC(C)C)C(=O)N[C@@H](Cc2c[nH]c3ccccc23)C(=O)N[C@@H](CO)C(N)=O)cc1 [[^177Lu]Lu-uPAR-12, metal not drawn]", "12 %ID/g"]
]}

====

# protocolSummary: in vivo
# particulars: CD1 nude, mouse, 0.5 nmol/mouse, total radioactivity, Pancreas uptake

{"columns": ["molecule", "tissue uptake at 24 h"],
 "data": [
  ["Cc1ccc(CCCC(=O)NCCOCCOCCOCCOCCOCCC(=O)NCCCC[C@H](NC(=O)CN2CCN(CC(=O)O)CCN(CC(=O)O)CCN(CC(=O)O)CC2)C(=O)N[C@@H](CC(=O)O)C(=O)N[C@@H](CC2CCCCC2)C(=O)N[C@@H](Cc2ccccc2)C(=O)N[C@H](CO)C(=O)N[C@H](CCCNC(=N)N)C(=O)N[C@@H](Cc2ccc(O)cc2)C(=O)N[C@@H](CC(C)C)C(=O)N[C@@H](Cc2c[nH]c3ccccc23)C(=O)N[C@@H](CO)C(N)=O)cc1 [[^177Lu]Lu-uPAR-18, metal not drawn]", "0.09 %ID/g"],
  ["Cc1ccc(CCCC(=O)NCCOCCOCCOCCOCCC(=O)NCCCC[C@H](NC(=O)CC[C@H](C(=O)O)N2CCN(CC(=O)O)CCN(CC(=O)O)CCN(CC(=O)O)CC2)C(=O)N[C@@H](CC(=O)O)C(=O)N[C@@H](CC2CCCCC2)C(=O)N[C@@H](Cc2ccccc2)C(=O)N[C@H](CO)C(=O)N[C@H](CCCNC(=N)N)C(=O)N[C@@H](Cc2ccc(O)cc2)C(=O)N[C@@H](CC(C)C)C(=O)N[C@@H](Cc2c[nH]c3ccccc23)C(=O)N[C@@H](CO)C(N)=O)cc1 [[^177Lu]Lu-uPAR-17, metal not drawn]", "0.04 %ID/g"],
  ["Cc1ccc(CCCC(=O)NCCOCCOCCOCCC(=O)NCCCC[C@H](NC(=O)CN2CCN(CC(=O)O)CCN(CC(=O)O)CCN(CC(=O)O)CC2)C(=O)N[C@@H](CC(=O)O)C(=O)N[C@@H](CC2CCCCC2)C(=O)N[C@@H](Cc2ccccc2)C(=O)N[C@H](CO)C(=O)N[C@H](CCCNC(=N)N)C(=O)N[C@@H](Cc2ccc(O)cc2)C(=O)N[C@@H](CC(C)C)C(=O)N[C@@H](Cc2c[nH]c3ccccc23)C(=O)N[C@@H](CO)C(N)=O)cc1 [[^177Lu]Lu-uPAR-15, metal not drawn]", "0.09 %ID/g"]
]}

====

# protocolSummary: Biodistribution in HEK-uPAR xenografted nude mice
# particulars: CD1 nude, mouse, stomach, 0.5 nmol/mouse, total radioactivity, Stomach uptake, 1 h p.i.; decay-corrected

{"columns": ["compound", "tissue uptake at 1 h"],
 "data": [
  ["CC(C)C[C@H](NC(=O)[C@H](Cc1ccc(O)cc1)NC(=O)[C@@H](CCCNC(=N)N)NC(=O)[C@@H](CO)NC(=O)[C@H](Cc1ccccc1)NC(=O)[C@H](CC1CCCCC1)NC(=O)[C@H](CC(=O)O)NC(=O)CN1CCN(CC(=O)O)CCN(CC(=O)O)CCN(CC(=O)O)CC1)C(=O)N[C@@H](Cc1c[nH]c2ccccc12)C(=O)N[C@@H](CO)C(N)=O [[^177Lu]Lu-DOTA-AE105, metal not drawn]", "0.39 %ID/g"]
]}

====

The compounds listed here are annotated with their Inverse relative albumin-binding affinity.
# studySystem: human serum albumin (Homo sapiens)
# Sequence (P02768 25-609): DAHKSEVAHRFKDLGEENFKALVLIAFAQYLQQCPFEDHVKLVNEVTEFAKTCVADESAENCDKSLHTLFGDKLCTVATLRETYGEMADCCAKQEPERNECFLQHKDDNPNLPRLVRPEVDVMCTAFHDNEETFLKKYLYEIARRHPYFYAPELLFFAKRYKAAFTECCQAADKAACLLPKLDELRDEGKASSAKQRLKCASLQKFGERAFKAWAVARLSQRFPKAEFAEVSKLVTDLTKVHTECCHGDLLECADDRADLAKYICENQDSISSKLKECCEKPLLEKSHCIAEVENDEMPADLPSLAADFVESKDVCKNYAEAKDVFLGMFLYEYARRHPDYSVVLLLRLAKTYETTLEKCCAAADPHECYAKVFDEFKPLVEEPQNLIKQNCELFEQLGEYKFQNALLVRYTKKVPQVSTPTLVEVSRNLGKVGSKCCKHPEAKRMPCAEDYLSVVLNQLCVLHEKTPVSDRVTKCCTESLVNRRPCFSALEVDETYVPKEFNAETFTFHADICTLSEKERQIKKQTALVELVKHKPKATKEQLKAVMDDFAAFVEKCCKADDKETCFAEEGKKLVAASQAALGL
# Assay type: in vitro ADME
# Parameters: tissue Stiftung Blutspende SRK Aargau-Solothurn, Switzerland; host or cells: human blood plasma
observedProperty: Inverse relative albumin-binding affinity

{"columns": ["compound", "obsValue"],
 "data": [
  ["Cc1ccc(CCCC(=O)NCCOCCOCCOCCOCCC(=O)NCCCC[C@H](NC(=O)CC[C@H](C(=O)O)N2CCN(CC(=O)O)CCN(CC(=O)O)CCN(CC(=O)O)CC2)C(=O)N[C@@H](CC(=O)O)C(=O)N[C@@H](CC2CCCCC2)C(=O)N[C@@H](Cc2ccccc2)C(=O)N[C@H](CO)C(=O)N[C@H](CCCNC(=N)N)C(=O)N[C@@H](Cc2ccc(O)cc2)C(=O)N[C@@H](CC(C)C)C(=O)N[C@@H](Cc2c[nH]c3ccccc23)C(=O)N[C@@H](CO)C(N)=O)cc1 [[^177Lu]Lu-uPAR-17, metal not drawn]", 0.65],
  ["Cc1ccc(CCCC(=O)NCCOCCOCCOCCC(=O)NCCCC[C@H](NC(=O)CN2CCN(CC(=O)O)CCN(CC(=O)O)CCN(CC(=O)O)CC2)C(=O)N[C@@H](CC(=O)O)C(=O)N[C@@H](CC2CCCCC2)C(=O)N[C@@H](Cc2ccccc2)C(=O)N[C@H](CO)C(=O)N[C@H](CCCNC(=N)N)C(=O)N[C@@H](Cc2ccc(O)cc2)C(=O)N[C@@H](CC(C)C)C(=O)N[C@@H](Cc2c[nH]c3ccccc23)C(=O)N[C@@H](CO)C(N)=O)cc1 [[^177Lu]Lu-uPAR-15, metal not drawn]", 0.77],
  ["Cc1ccc(CCCC(=O)NCCOCCOCCOCCOCCOCCC(=O)NCCCC[C@H](NC(=O)CN2CCN(CC(=O)O)CCN(CC(=O)O)CCN(CC(=O)O)CC2)C(=O)N[C@@H](CC(=O)O)C(=O)N[C@@H](CC2CCCCC2)C(=O)N[C@@H](Cc2ccccc2)C(=O)N[C@H](CO)C(=O)N[C@H](CCCNC(=N)N)C(=O)N[C@@H](Cc2ccc(O)cc2)C(=O)N[C@@H](CC(C)C)C(=O)N[C@@H](Cc2c[nH]c3ccccc23)C(=O)N[C@@H](CO)C(N)=O)cc1 [[^177Lu]Lu-uPAR-18, metal not drawn]", 1.05],
  ["Cc1ccc(CCCC(=O)NCCOCCOCCOCCOCCC(=O)NC[C@H](NC(=O)CN2CCN(CC(=O)O)CCN(CC(=O)O)CCN(CC(=O)O)CC2)C(=O)N[C@@H](CC(=O)O)C(=O)N[C@@H](CC2CCCCC2)C(=O)N[C@@H](Cc2ccccc2)C(=O)N[C@H](CO)C(=O)N[C@H](CCCNC(=N)N)C(=O)N[C@@H](Cc2ccc(O)cc2)C(=O)N[C@@H](CC(C)C)C(=O)N[C@@H](Cc2c[nH]c3ccccc23)C(=O)N[C@@H](CO)C(N)=O)cc1 [[^177Lu]Lu-uPAR-14, metal not drawn]", 0.50]
]}

Numbers sourced from paper PMC12920294.
